- STUDY_SYSTEM: T1, human LTBP3-proTGFβ1 complex (human, UniProt Q9NS15 44-1303; P01137 30-390, limits assumed)
- T1 construct: Exemplary entries; also called Hu LTBP3-proTGFβ1; huLTBP3 proTGFb1
- T1 sequence (Q9NS15 44-1303 limits assumed, chain 1 of 2): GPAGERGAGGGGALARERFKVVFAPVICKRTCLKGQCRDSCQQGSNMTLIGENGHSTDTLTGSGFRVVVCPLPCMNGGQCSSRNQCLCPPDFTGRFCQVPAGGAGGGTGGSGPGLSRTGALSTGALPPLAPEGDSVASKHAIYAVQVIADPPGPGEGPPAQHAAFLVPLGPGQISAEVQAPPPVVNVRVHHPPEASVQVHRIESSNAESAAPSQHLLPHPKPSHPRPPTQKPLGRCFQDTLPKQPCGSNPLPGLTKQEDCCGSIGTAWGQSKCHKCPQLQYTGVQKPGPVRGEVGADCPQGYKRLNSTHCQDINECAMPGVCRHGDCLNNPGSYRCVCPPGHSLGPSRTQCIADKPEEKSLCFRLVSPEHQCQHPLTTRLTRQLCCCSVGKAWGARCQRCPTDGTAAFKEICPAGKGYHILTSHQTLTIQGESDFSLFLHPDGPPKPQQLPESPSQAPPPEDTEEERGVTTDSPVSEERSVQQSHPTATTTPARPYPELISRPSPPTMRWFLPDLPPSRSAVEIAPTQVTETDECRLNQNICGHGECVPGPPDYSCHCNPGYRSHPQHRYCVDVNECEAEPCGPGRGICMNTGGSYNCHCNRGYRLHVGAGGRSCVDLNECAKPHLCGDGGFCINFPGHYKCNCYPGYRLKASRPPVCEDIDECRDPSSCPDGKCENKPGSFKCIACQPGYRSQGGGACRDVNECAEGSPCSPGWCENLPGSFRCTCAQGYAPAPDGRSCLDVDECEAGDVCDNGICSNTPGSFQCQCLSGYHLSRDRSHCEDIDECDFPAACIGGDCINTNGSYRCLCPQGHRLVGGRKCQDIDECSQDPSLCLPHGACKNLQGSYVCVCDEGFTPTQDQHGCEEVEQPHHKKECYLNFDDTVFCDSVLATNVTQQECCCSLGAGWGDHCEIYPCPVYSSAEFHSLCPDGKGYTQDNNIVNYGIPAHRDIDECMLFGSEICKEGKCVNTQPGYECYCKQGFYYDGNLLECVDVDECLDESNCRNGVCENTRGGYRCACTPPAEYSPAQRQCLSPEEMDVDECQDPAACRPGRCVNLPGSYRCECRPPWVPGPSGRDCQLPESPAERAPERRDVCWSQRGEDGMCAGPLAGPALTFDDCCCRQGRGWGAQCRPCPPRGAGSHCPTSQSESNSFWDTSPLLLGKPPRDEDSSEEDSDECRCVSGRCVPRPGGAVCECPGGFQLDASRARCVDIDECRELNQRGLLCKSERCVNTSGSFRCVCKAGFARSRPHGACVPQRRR
- T1 sequence (P01137 30-390 limits assumed, chain 2 of 2): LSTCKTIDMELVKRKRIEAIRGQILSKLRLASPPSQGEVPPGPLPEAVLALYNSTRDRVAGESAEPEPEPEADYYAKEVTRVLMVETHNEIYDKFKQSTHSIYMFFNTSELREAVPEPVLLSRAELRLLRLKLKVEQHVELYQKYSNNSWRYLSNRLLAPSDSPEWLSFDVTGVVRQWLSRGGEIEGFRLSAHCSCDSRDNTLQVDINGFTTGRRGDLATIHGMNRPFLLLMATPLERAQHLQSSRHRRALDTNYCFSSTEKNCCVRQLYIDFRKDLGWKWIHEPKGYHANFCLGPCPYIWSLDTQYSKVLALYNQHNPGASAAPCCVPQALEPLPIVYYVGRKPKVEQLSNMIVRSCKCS
- TEST_DETAILS: Octet BLI, IgG captured
OBSERVED_PROPERTY: pKd
Interpret pKd as the negative base-10 log of the concentration measured in mol/L.

| BINDER | pKd |
| --- | --- |
| SR-AB63 (antibody, IgG1, V domains shown, Cycle 3, lineage SR-AB26) VH: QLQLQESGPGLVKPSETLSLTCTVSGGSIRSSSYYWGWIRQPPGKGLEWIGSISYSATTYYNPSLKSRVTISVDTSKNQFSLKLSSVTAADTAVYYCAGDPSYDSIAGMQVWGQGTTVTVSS VL: DIQLTQSPSSLSASVGDRVTITCRASQSISSYLNWYQQKPGKAPKLLIYAASNLQSGVPSRFSGSGSGTDFTLTISSLQPEDFATYYCQQSFDWPLTFGGGTKVEIK | 9.31 |
| SR-AB31 (antibody, IgG1, V domains shown, Cycle 3, lineage SR-AB22) VH: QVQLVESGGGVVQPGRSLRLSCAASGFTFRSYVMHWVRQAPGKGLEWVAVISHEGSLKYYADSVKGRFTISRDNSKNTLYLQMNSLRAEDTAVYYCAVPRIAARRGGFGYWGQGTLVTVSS VL: NFMLTQPHSVSESPGKTVTISCTRSSGNIDNNYVQWYQQRPGSSPTTVIYEDNQRPSGVPDRFSGSIDSSSNSASLTISGLKTEDEADYYCQSYDFNNQGVVFGGGTKLTVL | 9.66 |

// moving on: another record for pKd
Give the measured pKd of SR-AB34 (antibody, IgG1, V domains shown, Cycle 3, lineage SR-AB22) VH: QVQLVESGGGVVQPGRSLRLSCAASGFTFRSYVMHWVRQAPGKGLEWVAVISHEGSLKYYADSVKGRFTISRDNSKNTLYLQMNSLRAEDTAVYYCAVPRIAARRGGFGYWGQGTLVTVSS VL: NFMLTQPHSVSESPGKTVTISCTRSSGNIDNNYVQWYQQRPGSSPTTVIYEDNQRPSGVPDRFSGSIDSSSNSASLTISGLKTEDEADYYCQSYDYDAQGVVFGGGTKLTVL . 9.75
